Where these numbers come from: ChEMBL document CHEMBL3596146

- Measurement Notes: Retention time of the compound by HPLC analysis
- Format: physicochemical
Give condition met when the value for Retention_time is at least 10 min. Give condition not met when it is less.

>  <Structure>
O=C(O)Cc1cn(Cc2ccccc2)c2ccc(OCCOc3cccc(Cl)c3)cc12

>  <Discrete Label>
condition not met

$$$$
>  <Structure>
O=C(O)Cc1c[nH]c2ccc(OCCCOc3cccc(Oc4ccc(C(F)(F)F)cc4)c3)cc12

>  <Discrete Label>
condition not met

$$$$
>  <Structure>
COc1ccc(Oc2cccc(OCCCOc3ccc4[nH]cc(CC(=O)O)c4c3)c2)cc1

>  <Discrete Label>
condition not met

$$$$
>  <Structure>
O=C(O)Cc1cn(Cc2ccc(F)cc2)c2ccc(OCCCOc3cccc(OCc4ccc(Cl)cc4)c3)cc12

>  <Discrete Label>
condition met

$$$$
>  <Structure>
O=C(O)Cc1cn(Cc2ccccc2)c2ccc(OCCCOc3cccc(Oc4ccc(C(F)(F)F)cc4)c3)cc12

>  <Discrete Label>
condition met

$$$$
>  <Structure>
Cc1ccc(COc2ccccc2OCCCOc2ccc3[nH]cc(CC(=O)O)c3c2)cc1

>  <Discrete Label>
condition not met

$$$$
>  <Structure>
O=C(O)Cc1cn(Cc2ccccc2)c2ccc(OCCCOc3cccc(OCc4ccccc4)c3)cc12

>  <Discrete Label>
condition met

$$$$
>  <Structure>
O=C(O)Cc1c[nH]c2ccc(OCCCOc3cccc(Oc4ccccc4)c3)cc12

>  <Discrete Label>
condition not met

$$$$
>  <Structure>
Cc1ccc(COc2ccc(OCCCOc3ccc4[nH]cc(CC(=O)O)c4c3)cc2)cc1

>  <Discrete Label>
condition not met

$$$$
